Could you please report measured log10 vapour pressure (mmHg) for the items listed next?
One number for each entry.

Each compound below has a reported value. Please supply its log10 vapour pressure (mmHg).
1. c1ccoc1
2. C1CNCCN1
3. CCCCCCCCCCCCI
4. O=C(NC(=O)c1c(F)cccc1F)Nc1ccc(CO/N=C(/c2ccc(Cl)cc2)C2CC2)cc1
5. C=C(C)Cl
6. CC(=O)OO
7. CCCOCCN(C(=O)CCl)c1c(CC)cccc1CC

Result:
1. 2.78
2. -0.796
3. -1.85
4. -9.39
5. 2.91
6. 1.16
7. -6

---

Cut-off 200 °C on boiling point, inclusive. At or above means fulfilled; below means not fulfilled.

{"Compound": "Cc1cc2c(cc1C)CCCC2", "Category Label": "fulfilled"}
{"Compound": "C1CCC(CCC2CCCCC2)CC1", "Category Label": "fulfilled"}
{"Compound": "CCOC(=O)c1cccc(C)c1", "Category Label": "fulfilled"}
{"Compound": "O=C=NCCCCCCN=C=O", "Category Label": "fulfilled"}
{"Compound": "C1COCCN1", "Category Label": "not fulfilled"}

Q: Say whether OCC1CCC(CO)CC1 (configuration not stated) shows boiling point of 200 °C or more.
Result: fulfilled

Q: Another: CC(Cl)Br (configuration not stated)
Result: not fulfilled

Q: Another: "O=Cc1ccccn1"
Result: not fulfilled

Q: Another: "O=C(OC(=O)C(F)(F)C(F)(F)F)C(F)(F)C(F)(F)F"
Result: not fulfilled

Q: Another: "CC(C)CCOC=O"
Result: not fulfilled

Q: Another: "CC(=O)c1ccsc1"
Result: fulfilled

Q: Another: "O=[N+]([O-])c1ccc(Cl)cc1"
Result: fulfilled

Q: Another: "O=C(CC(=O)C(F)(F)F)C(F)(F)F"
Result: not fulfilled

Q: Another: CCCC(C)CC(C)(C)C (configuration not stated)
Result: not fulfilled

These data points were gathered from the OPERA property sets (Mansouri et al. 2018).
